Listing of entries alongside the reported Selectivity.
- experimental-target: pre-pro-human insulin

The cases that follow already have their Selectivity on record.
protein: trypsin variant SEQ ID NO: 22 (protein) IVGGYTCAANSIPYQVSLNSGSHRCGGSLINSQWVVSAAHCYKSRIQVRLGEHNIDVLEGNEQFINAAKIITHPNFNGNTLDNDIMLIKLSSPATLNSRVATVSLPRSCAAAGTECLISGWGNTLSSGSSYPSLLQCLKAPVLSDSSCKSSYPGQITGNMICVGFLEGGKDACQGDSGGPVVCNGQLQGIVSSGYGCAQKNKPGVYTKVCNYVNWIQQTIAAN
Selectivity: >90%
//
protein: trypsin variant SEQ ID NO: 35 (protein) IVGGYTCAANSIPYQVSLNSGSHRCGGSLINSQWVVSAAHCYKSRIQVRLGEHNIDVLEGNEQFINAAKIITHPNFNGNTLDNDIMLIKLSSPATLNSRVATVSLPRSCAAAGTECLISGWGNTKSSGSSLPSLLQCLKAPVLSDSSCKSSYPGQITGNMICVGFLEGGKDACQGDSGGPVVCNGQLQGIVSSGYGCAQKNKPGVYTKVCNYVNWIQQTIAAN
Selectivity: >90%

Would you mind telling me what Selectivity value was observed for trypsin variant SEQ ID NO: 56 (protein) IVGGYTCAANSIPYQVSLNSGSHRCGGSLINSQWVVSAAHCYKSRIQVRLGEHNINVLEGNEQFINAAKIITHPNFNGNTLDNDIMLIKLSSPATLNSRVATVSLPRSCAAAGTECLISGWGNTKSSGSSYPSLLQCLKAPVLSDSSCKSSYPGQITGNMICVGFLEGGKDACQGDSGGPVVCNGQLQGIVSSGYGCAQKNKPGVYTKVCNYVNWIQQTIAAN ?
>90%
